Assay: Mineral-binding ability by retention time on hydroxyapatite HPLC column
Conditions: 1500 mM sodium phosphate buffer, pH = 6.8, 2 mL/min
Measured Retention time on hydroxyapatite column by item
Assay Readout: Retention time on hydroxyapatite column (min)

molecule=O=c1ccn([C@@H]2O[C@H](COP(=O)(O)OP(=O)(O)OP(=O)(O)O)[C@@H](O)[C@H]2O)c(=O)[nH]1 readout_units=min measurement=3.5
molecule=O=c1ccn([C@@H]2O[C@H](COP(=O)(O)OP(=O)(O)O)[C@@H](O)[C@H]2O)c(=O)[nH]1 readout_units=min measurement=3.47
molecule="O=P(O)(O)C(O)(Cn1ccnc1)P(=O)(O)O [Zoledronate, zoledronate]" readout_units=min measurement=17.35
molecule=O=c1ccn([C@@H]2O[C@H](COP(=O)(O)O)[C@@H](O)[C@H]2O)c(=O)[nH]1 readout_units=min measurement=3.42
molecule="CC(O)(P(=O)(O)O)P(=O)(O)OP(=O)(O)OCC1OC(n2cc(F)c(=O)[nH]c2=O)C(O)C1O (centres unmarked)" readout_units=min measurement=6.00

Cited source for all entries: patent US9216204B2
